Values from patent US9926369B2

System: PC3 (Human Prostate Cancer Cell Line) tumors
experiment: PC3 mouse tumor model
Format: in vivo, NCr nude mice
experimental.setup: PC3, 2 mg/kg twice per week
Each item that follows carries a reported Avg Tumor Growth.
Field: value (include unit after the number)

For orientation, consider the following solved cases.
molecule | value.measured
H1M749N: anti-Ang-2 antibody, HCVR/LCVR SEQ ID NOs 314/322 (antibody, V domains shown) VH: QVQLVESGGGVVQPGRSLRLSCAASGFTFSSYGMHWVRQAPGKGLEWVAVIWYDEFNKYYADSVKGRFTISRDNSKNTLYLQMNSLRAEDTAVYYCARERESGYSYGFDYWGQGTLVTVSS VL: EIVMTQSPATLSVSPGERATLSCRAGQSVSSNLAWYQQKPGQAPRLLIYGASTRATGIPARFSGSGSGTEFTLTISSLQSEDFAVYYCQQYNNWWTFGQGTKVEIK | 220 ± 261 mm^3
H2M742N: anti-Ang-2 antibody, HCVR/LCVR SEQ ID NOs 386/394 (antibody, V domains shown) VH: DVQLLESGGDLVQPGGSLRLSCEASGFTFRNYVMIWVRQAPGKGLEWVSGISNSGGTTHYTDSVKGRFTISRDNSKNTLYLQINSLRAEDTAVYYCAKGYLDTSLIEGNWFDPWGQGTLVTVSS VL: NIVMTQSPLSLPVTPGEPASISCRSSQSLLHSNGFNYLNWFLQKPGQSPQLLIYLGSNRASGVPDKFSGSGSGTDFTLNINRVEAEDVGIYFCMQTLQTPLTFGGGTKVEIK | 220 ± 102 mm^3
H2M743N: anti-Ang-2 antibody, HCVR/LCVR SEQ ID NOs 410/418 (antibody, V domains shown) VH: EVQLLESGGGLVQPGGSLRLSCAASGFTFRKYAMSWVRQAPGKGLEWVSVISVSGGNTYYADSVKGRFTISRDNSKNTLYLQLNSLRAEDTAVYYCAKDLTDIVLMVYVDYWGQGTLVTVSS VL: DIQMTQSPSSVSASVGDRVTITCRASQDIDRWLAWYQQKPGKAPKLLIYAASSLQSGVPSRFSGSGSGTDFTLTISTLQPEDFATYYCQQANSLPFTFGGGTKVEIK | 179 ± 169 mm^3

As a next step, examine the molecule that follows.
Input line: For the molecule H2M750N: anti-Ang-2 antibody, HCVR/LCVR SEQ ID NOs 458/466 (antibody, V domains shown) VH: QVKLVESGGGVVQPGRSLRVSCAASGFTFSSYGMHWVRQAPGKGLEWLAIIWYDGDNKYYSDSVKGRFTISRDNSKNTLYLQMNSLRAEDTAEYYCVRDASIASRFLDYWGQGTLVTVSS VL: DIQMTQSPSSLSASIGDRVTITCRATQDINNYLAWFQQKPGKAPKSLIYATSNLQSGVPSKFSGSGSGTDYTLTISSLQPEDFSTYYCQQYHSYPLTFGGGTKVEIK , what Avg Tumor Growth is on record?
Output line: 227 ± 195 mm^3
